- Target or system: UniProt O42275
- Sequence (O42275 whole entry): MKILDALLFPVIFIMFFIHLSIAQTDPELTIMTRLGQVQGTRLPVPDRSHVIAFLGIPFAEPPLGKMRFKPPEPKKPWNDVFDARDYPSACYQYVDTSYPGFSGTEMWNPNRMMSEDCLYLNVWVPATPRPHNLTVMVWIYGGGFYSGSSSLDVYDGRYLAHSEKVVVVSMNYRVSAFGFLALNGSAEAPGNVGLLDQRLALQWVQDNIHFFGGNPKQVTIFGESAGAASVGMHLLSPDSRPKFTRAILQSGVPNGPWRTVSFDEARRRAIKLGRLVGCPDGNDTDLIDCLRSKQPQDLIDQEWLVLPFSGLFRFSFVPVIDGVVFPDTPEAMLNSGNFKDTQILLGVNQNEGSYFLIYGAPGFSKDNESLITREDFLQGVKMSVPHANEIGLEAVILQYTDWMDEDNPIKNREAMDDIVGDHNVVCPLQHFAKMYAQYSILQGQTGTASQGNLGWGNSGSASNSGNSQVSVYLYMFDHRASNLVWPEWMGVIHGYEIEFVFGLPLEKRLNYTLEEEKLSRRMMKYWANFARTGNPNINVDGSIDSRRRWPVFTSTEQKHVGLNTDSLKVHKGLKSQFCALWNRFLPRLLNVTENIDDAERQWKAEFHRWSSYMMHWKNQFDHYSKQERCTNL
pIC50: −log10 of the molar value.
Experimental endpoint: pIC50

CC1c2cc(OC(=O)N(C)C)ccc2NC1[n+]1cccc(C(N)=O)c1 (stereo unspecified): 4.30
